Assay: physchem
Details: pH 6.8, aqueous buffer, Solubility in the presence of Hybrane S1200
test readout: solubility (µg/mL)

COc1ccc(-c2nc3ccc(C4=NNC(=O)CC4C)cc3[nH]2)cc1 (centres unmarked) | 210

P: O=C1C(O)=C([C@H]2CC[C@H](c3ccc(Cl)cc3)CC2)C(=O)c2ccccc21
Q: CCC1=C(C)CN(C(=O)NCCc2ccc(S(=O)(=O)NC(=O)N[C@H]3CC[C@H](C)CC3)cc2)C1=O [glimepiride]
R: CC1Cc2ccccc2N1NC(=O)c1ccc(Cl)c(S(N)(=O)=O)c1 (centres unmarked) [indapamide]
input: Rank items: key solubility, increasing. Answer format: the labels, in the requested order.
output: P, Q, R
